# system: human GLP-1 receptor (human, UniProt P43220 24-463)
# assayComment: cell-based or functional assay
Starred links: 1 amine or outer side, 2 acyl side, 3 side chain; linkers in the order of their positions; H or OH if unused. Non-standard residues stand in square brackets, D forms with d. Groups on a side chain read outwards from the residue. No end group written: not given here. *: point of attachment. C18 diacid = O=C(O)CCCCCCCCCCCCCCCCC(=O)*; γGlu = O=C(O)[C@H](CCC(=O)[*:2])N[*:1]; AEEA = NCCOCCOCC(=O)O; Aib = CC(C)(N)C(=O)O
Listed here: items and their measured EC50 CreLuc hGLP1R 100% hP.

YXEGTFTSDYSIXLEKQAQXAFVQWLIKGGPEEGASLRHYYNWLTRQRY (Aib at 2, 13, 20; K28 side chain: C20DA-gGlu-gGlu-gGlu-gGlu-gGlu-gGlu-eLys; C-terminal NH2) [Compound 89] = 8.9 nM
YXEGTFTSDYSIXLEKQAQXAFVEWLIKGGPSSGASVRHYYNWLTRQRY (Aib at 2, 13, 20; K28 side chain: C20DA-gGlu-gGlu-gGlu-gGlu-gGlu-gGlu-eLys; C-terminal NH2) [Compound 117] = 1.8 nM
Y[Aib]EGTFTSDYSI[Aib]LEKQAQ[Aib]AFVEWLIK([AEEA-AEEA-γGlu-γGlu-γGlu-γGlu-C18 diacid])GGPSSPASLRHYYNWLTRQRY-NH2 [Compound 158] = 3.25 nM
Y[Aib]EGTFTSDYSI[Aib]LEKQAQ[Aib]EFVQWLIK([AEEA-AEEA-Glu-Glu-Glu-C18 diacid])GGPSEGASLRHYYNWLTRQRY-NH2 [Compound 157] = 9.05 nM

Reported EC50 CreLuc hGLP1R 100% hP for Y[Aib]EGTFTSDYSI[Aib]LEKQAQ[Aib]EFVEWLIK([AEEA-AEEA-γGlu-γGlu-γGlu-C18 diacid])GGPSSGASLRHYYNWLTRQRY-NH2 [Compound 171] was 4.17 nM

Reported EC50 CreLuc hGLP1R 100% hP for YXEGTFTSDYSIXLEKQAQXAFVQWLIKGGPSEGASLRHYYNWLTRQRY (Aib at 2, 13, 20; NMeQ at 47; K28 side chain: C20DA-gGlu-gGlu-gGlu-gGlu-gGlu-gGlu-eLys; C-terminal NH2) [Compound 115] was 3.45 nM

Reported EC50 CreLuc hGLP1R 100% hP for YXEGTFTSDYSIXLERQAQXAFVEWLIKGGPSSGASLRHYYNWLTRQRY (Aib at 2, 13, 20; K28 side chain: C20DA-gGlu-gGlu-gGlu-gGlu-gGlu-gGlu-eLys; C-terminal NH2) [Compound 131] was 2.84 nM

Reported EC50 CreLuc hGLP1R 100% hP for YXEGTFTSDYSIXLEKQAQXAFVQWLIKGGPSEPASLRHYYNWLTRQRY (Aib at 2, 13, 20; K28 side chain: C18DA-gGlu-gGlu-gGlu-gGlu-gGlu-OEG-OEG; C-terminal NH2) [Compound 142] was 3.34 nM

Reported EC50 CreLuc hGLP1R 100% hP for YXEGTFTSDYSIXLESQAQXAFVEWLIKGGPSSGASLRHYYNWLTRQRY (Aib at 2, 13, 20; K28 side chain: C20DA-gGlu-gGlu-gGlu-gGlu-gGlu-gGlu-eLys; C-terminal NH2) [Compound 121] was 7.09 nM

Reported EC50 CreLuc hGLP1R 100% hP for Y[Aib]EGTFTSDYSI[Aib]LEKQAQ[Aib]AFVQWLIK([AEEA-AEEA-γGlu-γGlu-γGlu-γGlu-C18 diacid])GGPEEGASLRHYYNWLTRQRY-NH2 [Compound 146] was 4.27 nM
